- System: T. cruzi-infected H9C2 cardiomyocytes, high-content imaging
- run-description: intracellular T. cruzi amastigote inhibition, imaging, H9C2 host cardiomyocytes, host toxicity (AID 1159565);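 also: infected cells incubated 72 h after plating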
- settings: measured here: amastigotes per cell
pIC50: −log10 of the molar value.
Measured pIC50 determines class: low class (below 5), middle class (5 to below 6), high class (6 or more)

INSERT INTO results (compound, label) VALUES
  ('CS(=O)(=O)c1cccc(CNC(=O)c2cncc(N3CCN(c4ccc(F)cc4)CC3)c2)c1', 'high class'),
  ('O=C(Nc1nc2ccccc2[nH]1)c1c(O)c2cccc3c2n(c1=O)CC3', 'low class'),
  ('O=C(Nc1cccc(S(=O)(=O)Nc2ccc(Br)cc2)c1)c1ccc([N+](=O)[O-])s1', 'high class'),
  ('CS(=O)(=O)c1ccc(CC(=O)Nc2nc(-c3ccc(Cl)s3)cs2)cc1', 'high class'),
  ('CN1CCCN(C(=O)c2ccc(N3CCCC3)cc2Cl)CC1', 'high class'),
  ('c1ccc(-c2nc(NCc3ccco3)c3ccccc3n2)nc1', 'middle class'),
  ('CCS(=O)(=O)Nc1ccc(C2=NN(C(=O)c3cccs3)C(c3ccccc3OC)C2)cc1 (configuration not stated)', 'low class'),
  ('Fc1ccc(Nc2nc(-c3ccccn3)cs2)cc1', 'middle class'),
  ('OCC1CCCCN1c1cc(-c2ccccn2)nc(Nc2ccccc2)n1 (configuration not stated)', 'middle class'),
  ('CCc1ccccc1[C@@H](C)NC(=O)c1cnc2c(cnn2CC)c1NC1CCN(C(N)=O)CC1', 'low class'),
  ('COc1ccc(C(C)(C)C)cc1S(=O)(=O)n1ccnc1', 'high class');

Data credit: PubChem BioAssay AID1159565
